# Test system: HCT116 colon carcinoma
# Test protocol: MTT assay, cell growth inhibition of HCT116 colon carcinoma
# Assay type: cell-based
# Test conditions: Homo sapiens, HCT-116, 72 h, MTT, 72 h incubation; mean of three independent experiments ± SD; IC50 > 50 means inhibition <20% at 50 μM
pIC50: −log10 of the molar value.
Recorded endpoint: pIC50

CC(CCn1cc(CCCCC#Cc2cn([C@H]3C[C@H](O)[C@@H](CO)O3)c(=O)[nH]c2=O)nn1)[C@H]1CCC2C3C(CC[C@@]21C)[C@@]1(C)CC[C@@H](O)CC1C[C@H]3O (stereo partly drawn): < 4.30
CC(CCC(=O)NCCS(=O)(=O)O)[C@H]1CCC2C3C(CC[C@@]21C)[C@@]1(C)CC[C@@H](n2cc(CCCCC#Cc4nc5c(=O)[nH]c(N)nc5n4[C@@H]4O[C@H](CO)[C@@H](O)[C@H]4O)nn2)CC1C[C@@H]3O (stereo partly drawn): < 4.30
COC(=O)CC[C@@H](C)[C@H]1CC[C@H]2[C@@H]3[C@H](O)C[C@@H]4C[C@H](N=[N+]=[N-])CC[C@]4(C)[C@H]3CC[C@]12C: 4.51
C#CCCCCC#Cc1nc2c(=O)[nH]c(N)nc2n1[C@@H]1O[C@H](CO)[C@@H](O)[C@H]1O: < 4.30
COC(=O)CCC(C)[C@H]1CCC2C3C(CC[C@@]21C)[C@@]1(C)CC[C@@H](n2cc(CCCCC#Cc4cn([C@H]5C[C@H](O)[C@@H](CO)O5)c(=O)[nH]c4=O)nn2)CC1C[C@@H]3O (stereo partly drawn): ≥ 4.60
COC(=O)CCC(C)[C@H]1CCC2C3C(CC[C@@]21C)[C@@]1(C)CC[C@@H](n2cc(CCCCC#Cc4cn([C@H]5C[C@H](O)[C@@H](CO)O5)c(=O)[nH]c4=O)nn2)CC1C[C@H]3O (stereo partly drawn): < 4.30
CC(CCn1cc(CCCCC#Cc2nc3c(=O)[nH]c(N)nc3n2[C@@H]2O[C@H](CO)[C@@H](O)[C@H]2O)nn1)[C@H]1CCC2C3C(CC[C@@]21C)[C@@]1(C)CC[C@@H](O)CC1C[C@H]3O (stereo partly drawn): < 4.30
CC(CCN=[N+]=[N-])[C@H]1CCC2C3C(CC[C@@]21C)[C@@]1(C)CC[C@@H](O)CC1C[C@H]3O (stereo partly drawn): 4.60
CC(CCC(=O)NCCS(=O)(=O)O)[C@H]1CCC2C3C(CC[C@@]21C)[C@@]1(C)CC[C@@H](N=[N+]=[N-])CC1C[C@@H]3O (stereo partly drawn): < 4.30
CC(CCn1cc(CCCCC#Cc2cn([C@H]3C[C@H](O)[C@@H](CO)O3)c(=O)[nH]c2=O)nn1)[C@H]1CCC2C3C(CC[C@@]21C)[C@@]1(C)CC[C@@H](O)CC1C[C@@H]3O (stereo partly drawn): 4.37

Query :: Requested read-out: pIC50. Entry: COC(=O)CCC(C)[C@H]1CCC2C3C(CC[C@@]21C)[C@@]1(C)CC[C@@H](n2cc(CCCCC#Cc4nc5c(=O)[nH]c(N)nc5n4[C@@H]4O[C@H](CO)[C@@H](O)[C@H]4O)nn2)CC1C[C@@H]3O (stereo partly drawn)
Result :: < 4.30

Query :: What about CC(CCN=[N+]=[N-])[C@H]1CCC2C3C(CC[C@@]21C)[C@@]1(C)CC[C@@H](O)CC1C[C@@H]3O (stereo partly drawn) ?
Result :: 4.66

Query :: What about CC(CCC(=O)NCCS(=O)(=O)O)[C@H]1CCC2C3C(CC[C@@]21C)[C@@]1(C)CC[C@@H](n2cc(CCCCC#Cc4nc5c(=O)[nH]c(N)nc5n4[C@H]4C[C@H](O)[C@@H](CO)O4)nn2)CC1C[C@@H]3O (stereo partly drawn) ?
Result :: < 4.30

Query :: What about CC(CCC(=O)NCCS(=O)(=O)O)C1CCC2C3C(O)CC4CC(n5cc(CCCCC#Cc6nc7c(N)ncnc7n6C6OC(CO)C(O)C6O)nn5)CCC4(C)C3CCC12C (stereo not drawn) ?
Result :: < 4.30

Query :: What about C#CCCCCC#Cc1nc2c(N)ncnc2n1[C@@H]1O[C@H](CO)[C@@H](O)[C@H]1O ?
Result :: < 4.30

###

# Tested on: K562 leukemia cells
# Test protocol: MTT assay, cell growth inhibition of K562 leukemia cells
# Assay type: cell-based
# Test conditions: MTT, 72 h incubation; mean of three independent experiments ± SD; IC50 > 50 means inhibition <20% at 50 μM; read-out: IC50 K562
As shown below, each of these compounds has a reported pIC50 value.
Please report pIC50 as the negative decimal logarithm of the molar concentration, giving only the number.

Look over these answered cases.
CC(CCn1cc(CCCCC#Cc2nc3c(N)ncnc3n2[C@H]2C[C@H](O)[C@@H](CO)O2)nn1)[C@H]1CCC2C3C(CC[C@@]21C)[C@@]1(C)CC[C@@H](O)CC1C[C@H]3O (stereo partly drawn): 4.79
COC(=O)CCC(C)[C@H]1CCC2C3C(CC[C@@]21C)[C@@]1(C)CC[C@@H](n2cc(CCCCC#Cc4cn([C@H]5C[C@H](O)[C@@H](CO)O5)c(=O)[nH]c4=O)nn2)CC1C[C@@H]3O (stereo partly drawn): 4.67
N.N.[Cl][Pt][Cl] [CISPLATIN, cisplatin, reference compound]: 5.27

Query :: Requested read-out: pIC50. Entry: CC(CCn1cc(CCCCC#Cc2cn([C@H]3C[C@H](O)[C@@H](CO)O3)c(=O)[nH]c2=O)nn1)[C@H]1CCC2C3C(CC[C@@]21C)[C@@]1(C)CC[C@@H](O)CC1C[C@@H]3O (stereo partly drawn)
Result :: 4.61

###

# Test system: HCT116 colon carcinoma
# Test protocol: MTT assay, cell growth inhibition of HCT116 colon carcinoma
# Format: cell-based
# Test conditions: MTT, 72 h incubation; mean of three independent experiments ± SD; IC50 > 50 means inhibition <20% at 50 μM
As shown below, each of these compounds has a reported pIC50 value.
Please report pIC50 as the negative decimal logarithm of the molar concentration, giving only the number.

Look over these answered cases.
CC(CCn1cc(CCCCC#Cc2nc3c(N)ncnc3n2[C@H]2C[C@H](O)[C@@H](CO)O2)nn1)[C@H]1CCC2C3C(CC[C@@]21C)[C@@]1(C)CC[C@@H](O)CC1C[C@H]3O (stereo partly drawn) [dA-nor-CDC]: 4.77
N.N.[Cl][Pt][Cl] [CISPLATIN, cisplatin, reference compound]: 5.07
COC(=O)CCC(C)[C@H]1CCC2C3C(CC[C@@]21C)[C@@]1(C)CC[C@@H](n2cc(CCCCC#Cc4nc5c(=O)[nH]c(N)nc5n4[C@@H]4O[C@H](CO)[C@@H](O)[C@H]4O)nn2)CC1C[C@H]3O (stereo partly drawn) [G-CDC]: 4.60

Please look at the following compound next.
Query :: Requested read-out: pIC50. Entry: COC(=O)CCC(C)[C@H]1CCC2C3C(CC[C@@]21C)[C@@]1(C)CC[C@@H](n2cc(CCCCC#Cc4cn([C@H]5C[C@H](O)[C@@H](CO)O5)c(=O)[nH]c4=O)nn2)CC1C[C@@H]3O (stereo partly drawn) [dU-UDC]
Result :: 4.63

###

# System: HCT116 colon carcinoma
# Test protocol: MTT assay, cell growth inhibition of HCT116 colon carcinoma
# Format: cell-based
# Test conditions: Homo sapiens, HCT-116, 72 h, MTT, 72 h incubation; mean of three independent experiments ± SD; IC50 > 50 means inhibition <20% at 50 μM
pIC50: −log10 of the molar value.
Recorded endpoint: pIC50

Look over these answered cases.
COC(=O)CC[C@@H](C)[C@H]1CC[C@H]2[C@@H]3[C@@H](O)C[C@@H]4C[C@H](N=[N+]=[N-])CC[C@]4(C)[C@H]3CC[C@]12C: 4.66
CC(CCn1cc(CCCCC#Cc2nc3c(=O)[nH]c(N)nc3n2[C@H]2C[C@H](O)[C@@H](CO)O2)nn1)[C@H]1CCC2C3C(CC[C@@]21C)[C@@]1(C)CC[C@@H](O)CC1C[C@H]3O (stereo partly drawn): < 4.30

Query :: Requested read-out: pIC50. Entry: COC(=O)CCC(C)[C@H]1CCC2C3C(CC[C@@]21C)[C@@]1(C)CC[C@@H](n2cc(CCCCC#Cc4nc5c(=O)[nH]c(N)nc5n4[C@@H]4O[C@H](CO)[C@@H](O)[C@H]4O)nn2)CC1C[C@H]3O (stereo partly drawn)
Result :: ≥ 4.60

###

As shown below, each of these molecules has a reported pIC50 value.
# Tested on: HCT116 colon carcinoma
# Test protocol: MTT assay, cell growth inhibition of HCT116 colon carcinoma
# Assay type: cell-based
# Test conditions: Homo sapiens, HCT-116, 72 h, MTT, 72 h incubation; mean of three independent experiments ± SD; IC50 > 50 means inhibition <20% at 50 μM
pIC50: −log10 of the molar value.

Query :: Requested read-out: pIC50. Entry: CC(CCn1cc(CCCCC#Cc2nc3c(=O)[nH]c(N)nc3n2[C@@H]2O[C@H](CO)[C@@H](O)[C@H]2O)nn1)[C@H]1CCC2C3C(CC[C@@]21C)[C@@]1(C)CC[C@@H](O)CC1C[C@@H]3O (stereo partly drawn)
Result :: < 4.30

Query :: What about CC(CCn1cc(CCCCC#Cc2nc3c(N)ncnc3n2[C@H]2C[C@H](O)[C@@H](CO)O2)nn1)[C@H]1CCC2C3C(CC[C@@]21C)[C@@]1(C)CC[C@@H](O)CC1C[C@@H]3O (stereo partly drawn) ?
Result :: 4.35

Query :: What about C#CCCCCC#Cc1nc2c(=O)[nH]c(N)nc2n1[C@H]1C[C@H](O)[C@@H](CO)O1 ?
Result :: < 4.30

The values you see were collected from paper PMC6151511.
